test system: OVCAR-3; assay: NCI tumour cell line growth inhibition, 48 h
Calls of active or inactive are those of the source. No stated cut-off is given here; in the data, active = GI50 up to about 1.1 µM and inactive = higher.
Assign GI50 to each entry below.

Example results:
compound: C=CCC(SC)C1=C(C)C(=O)c2ccccc21 (stereo not given)
test-target: OVCAR-3
GI50: > 10 µM (inactive)

compound: C/C(CC(=O)N(C(C)C)C(C)C)=N\NC(=O)c1ccncc1
test-target: OVCAR-3
GI50: > 100 µM (inactive)

compound: CC(C)c1c(O[Si](C(C)C)(C(C)C)C(C)C)cc2c(c1O)CC[C@H]1C(C)(C)CCC[C@]21C
test-target: OVCAR-3
GI50: > 100 µM (inactive)

compound: C=C(C)C12CC3CC(/C(=N/O)C(C1)/C3=N\O)[C@@]2(C)O (stereo not given in full)
test-target: OVCAR-3
GI50: > 100 µM (inactive)

compound: COc1cccc2[nH]c(-c3ccccn3)nc12
test-target: OVCAR-3
GI50: 55.7 µM (inactive)

For every item below, please supply its GI50.
1. C=C[C@H]1CC[C@H]2[C@@H]3CC=C4C[C@@H](OC5OCC(O)C(O)C5O)CC[C@]4(C)[C@H]3CC[C@]12C (stereo not given in full)
2. COC(OC)(c1ccccc1)C(I)I
3. O=C1CSC(=S)N1c1ccc(F)cc1F

Reply |
11.9 µM (inactive)
15.3 µM (inactive)
41.3 µM (inactive)

For every item below, please supply its GI50.
1. COc1cccc(C23CCCC(C2)N(C)CC3OC(=O)c2ccccc2)c1OC (stereo not given)
2. Nc1ccc(S(=O)(=O)Nc2ccc(Nc3c4ccccc4nc4ccccc34)cc2)cc1

Reply |
1: 24.8 µM (inactive); 2: 0.245 µM (active)

###

test system: A549; test: NCI tumour cell line growth inhibition, 48 h
The source made the active and inactive calls. Rule as the data show it: active = GI50 up to about 1.1 µM and inactive = higher.
Permitted responses: T for active, F for inactive

Ask | Fill in: this test's call for O=C(NC1CCCCC1)c1c(O)[nH]c(=S)[nH]c1=O is ___
Reply | F

Ask | Fill in: this test's call for C[N+](C)(C)CC(=O)N/N=c1\cc(C(=O)Nc2ccc(N=O)cc2C#N)oc2cc(O)ccc12 is ___
Reply | F

Ask | Fill in: this test's call for CC(=O)OCC1OC(n2c(=S)n(-c3ccccc3)c(=O)c3cc(Br)ccc32)C(OC(C)=O)C1OC(C)=O (stereo not given) is ___
Reply | F

Ask | Fill in: this test's call for O=c1c2ccccc2nc(N/N=C/c2ccccc2O)n1-c1ccccc1 is ___
Reply | F

Ask | Fill in: this test's call for CN(C(=O)Cc1ccc(Cl)c(Cl)c1)[C@H]1CCCC[C@@H]1[N+]1(C)CCCC1 is ___
Reply | F

Ask | Fill in: this test's call for O=C(Cn1c2c(c3ccccc31)CCCC2)N1CCCC1 is ___
Reply | F

Ask | Fill in: this test's call for COC1/C=C\C=C(/C)C(=O)NC2=CC(=O)C(N)=C(CC(C)CC(OC)C(O)C(C)C=C(C)C1OC(N)=O)C2=O (stereo not given) is ___
Reply | T

###

system: MOLT-4; assay: NCI tumour cell line growth inhibition, 48 h
Calls of active or inactive are those of the source. Cut-off read from the data, not from the text of the source: active = GI50 up to about 1.1 µM and inactive = higher.
Permitted responses: YES for active, NO for inactive

Example entries and their recorded answers appear below.
compound: Nc1nc(S)c2c(N)n[nH]c2c1C(=O)Nc1ccc(Cl)cc1
assigned-label: NO
//
compound: C=CCn1c(=O)c(C(=O)Nc2nc(C34CC5CC(CC(C5)C3)C4)cs2)c(O)c2ccccc21
assigned-label: NO
//
compound: Cc1nc2ccccc2c(=O)n1NC(=O)c1ccc(N)cc1
assigned-label: NO

Ask | Fill in: this test's call for O=C(O)CCN(CCCCN(CCC(=O)O)CCC(=O)O)CCC(=O)O is ___
Reply | NO

Ask | Fill in: this test's call for CC12Cc3cc4c(cc3C1(c1ccc([N+](=O)[O-])cc1)OCCO2)OCO4 (stereo not given) is ___
Reply | NO

Ask | Fill in: this test's call for Cc1cccc(NC2=NC(=O)C(CC(=O)Nc3cccc(C)c3C)S2)c1 (stereo not given) is ___
Reply | NO

Ask | Fill in: this test's call for COc1ccc(CCNC(=O)Cc2ccccc2CO)cc1OC is ___
Reply | NO

Ask | Fill in: this test's call for O=C1C2=Nc3ccccc3C(O)N2c2ccccc21 (stereo not given) is ___
Reply | NO

Ask | Fill in: this test's call for C=CC(C)(O)/C=C/C=C(\C)C(CC1OC1(C)C)OC(=O)/C(C)=C\C (stereo not given) is ___
Reply | NO

Ask | Fill in: this test's call for O=c1c2ccccc2n2cnc3ccc(NCCNCCO)c1c32 is ___
Reply | YES

###

tested on: 786-0; test: NCI tumour cell line growth inhibition, 48 h
The source made the active and inactive calls. No stated cut-off is given here; in the data, active = GI50 up to about 1.1 µM and inactive = higher.
Permitted responses: yes (1) (active), no (0) (inactive)

Example entries and their recorded answers appear below.
molecule: C/C(=N\NC(=S)NCCCNC(=S)N/N=C(\C)c1ccccn1)c1ccccn1
assigned-label: yes (1)
--
molecule: COc1cccc(C23CCCC(C2)N(C)CC3OC(=O)c2ccccc2)c1OC (stereo not given)
assigned-label: no (0)
--
molecule: CCOc1ccc2c(c1)[n+]([O-])c(-c1ccc([N+](=O)[O-])cc1)c(N)[n+]2[O-]
assigned-label: no (0)
--
molecule: CCCCC(=O)OC[n+]1cccc(-c2c(COC(=O)NC(C)C)c(COC(=O)NC(C)C)c3n2CCC3)c1
assigned-label: no (0)
--
molecule: Cc1nc2c(sc(=S)n2-c2ccccc2)c2nc3ccccc3n12
assigned-label: no (0)

Ask | Fill in: this test's call for CCCCCc1c(Cl)nc(Cl)nc1Cl is ___
Reply | no (0)

Ask | Fill in: this test's call for CCNCCNC(=O)c1ccc(I)cc1 is ___
Reply | no (0)

Ask | Fill in: this test's call for CCOP1(=O)OCC2OC(n3cnc4c(N)ncnc43)C(O)C2O1.c1ccccc1 (stereo not given) is ___
Reply | no (0)

Ask | Fill in: this test's call for CC(C)OC(=O)C1=C2c3ncccc3C(=O)N2[C@@H](Cl)[C@@H](Cl)[C@@H]1Cl is ___
Reply | no (0)

Ask | Fill in: this test's call for CC1=C2CC[C@@]3(C)C(=CCC3O)C2(C)CCC1=O (stereo not given in full) is ___
Reply | no (0)

###

The molecules below have reported GI50 for HCT-15.
One number for each entry, in µM.

molecule: Cc1ccc(NC(=O)C(=O)C(C(=O)c2ccc3ccccc3c2)C2OC(=O)c3ccccc32)c(C)c1 (configuration not stated)
GI50 / µM: 14.3

molecule: COc1ccc(/C=C2\CCC(CN3CCOCC3)C2=O)cc1 (configuration not stated)
GI50 / µM: 2.39

molecule: CC(C)(C)c1cc(C#N)c2c(c1)C(=O)OC2(c1ccccc1)c1ccccc1C#N (configuration not stated)
GI50 / µM: 29.5

The molecule listed as O=C(OCC(Cl)(Cl)Cl)N1CC[C@@H](C2CCCCC2)C1 shows GI50 equal to 18.7

###

tested on: EKVX; assay: NCI tumour cell line growth inhibition, 48 h
The source made the active and inactive calls. Cut-off read from the data, not from the text of the source: active = GI50 up to about 1.1 µM and inactive = higher.
measured-metric: GI50

For every item below, please supply its GI50.
1. CCOC(=O)c1ccc(N[C@@H]2c3cc4c(cc3C(C3=CC(=O)C(=O)C(OC)=C3)[C@H]3C(=O)OCC32)OCO4)cc1 (stereo not given in full)
2. Cc1nc(NC(C)(CO)CO)nc(N/N=C/c2ccc(Cl)cc2)c1C(=O)Nc1ccc(Cl)cc1

Reply |
1: 3.73 µM (inactive); 2: > 100 µM (inactive)

###

system: MOLT-4; experiment: NCI tumour cell line growth inhibition, 48 h
Activity calls are given as the source filed them. Rule as the data show it: active = GI50 up to about 1.1 µM and inactive = higher.
Permitted responses: active, inactive

Example entries and their recorded answers appear below.
compound: O=C(N/N=C1\CCc2ccccc21)N/N=C1\CCc2ccccc21
assigned-label: inactive
//
compound: O=C(/C=C\c1ccccc1)Oc1ccc(/C=C2\CCC/C(=C\c3ccc(OC(=O)/C=C\c4ccccc4)cc3)C2=O)cc1
assigned-label: inactive
//
compound: CC(=O)OC1C(O)C(C)OC(OC(=O)C2CCC3C(C2)OC2(CC(OC(=O)/C=C/c4ccccc4)C(C)CO2)C32CO2)C1OC1OC(C)C(O)C(O)C1O (centres undefined)
assigned-label: active

Ask | Fill in: this test's call for CCOC(=O)c1ccc(N[C@@H]2c3cc4c(cc3C(C3=CC(=O)C(=O)C(OC)=C3)[C@H]3C(=O)OCC32)OCO4)cc1 (some centres undefined) is ___
Reply | active

Ask | Fill in: this test's call for CC1OC(CO)(n2cnc3c(N)ncnc32)C(O)C1O (centres undefined) is ___
Reply | inactive

Ask | Fill in: this test's call for COC(C(=O)NN)c1ccccc1 (centres undefined) is ___
Reply | inactive

Ask | Fill in: this test's call for CCCCc1c2c(nc3c1CC/C(=C\c1ccc([N+](=O)[O-])cc1)C3=O)CCCC2 is ___
Reply | inactive

Ask | Fill in: this test's call for C[N+](C)(C)CC(=O)N/N=c1\cc(C(=O)Nc2ccc(N=O)cc2C#N)oc2cc(O)ccc12 is ___
Reply | inactive

Ask | Fill in: this test's call for CC(=O)C(=[N+]=[N-])C(=O)OC(C)(C)C#N is ___
Reply | inactive

These measurements were taken from ChEMBL document CHEMBL1201862.
